Data provenance is ChEMBL document CHEMBL1909294.

Heads up, these compounds all have DILI positive/negative values measured for Hepatotoxicity.

[
  {
    "compound": "NC(=O)OCC(COC(N)=O)c1ccccc1 [FELBAMATE]",
    "DILI positive/negative": 1
  },
  {
    "compound": "CC(C(=O)O)c1ccc(N2CC=CC2)c(Cl)c1 (centres undefined)",
    "DILI positive/negative": 1
  },
  {
    "compound": "CC(C)Cc1ccc(CC(=O)O)cc1",
    "DILI positive/negative": 1
  },
  {
    "compound": "C#C[C@]1(O)CC[C@H]2[C@@H]3CCc4cc(O)ccc4[C@H]3CC[C@@]21C",
    "DILI positive/negative": 1
  },
  {
    "compound": "C[C@H](CCc1ccccc1)NC[C@H](O)c1ccc(O)c(C(N)=O)c1",
    "DILI positive/negative": 1
  },
  {
    "compound": "COCC(=O)O[C@]1(CCN(C)CCCc2nc3ccccc3[nH]2)CCc2cc(F)ccc2[C@@H]1C(C)C",
    "DILI positive/negative": 0
  },
  {
    "compound": "CC1=C(/C=C/C(C)=C/C=C/C(C)=C\\C(=O)O)C(C)(C)CCC1",
    "DILI positive/negative": 1
  },
  {
    "compound": "COc1ccc(CCN2CCC(Nc3nc4ccccc4n3Cc3ccc(F)cc3)CC2)cc1",
    "DILI positive/negative": 0
  },
  {
    "compound": "CC[N+](C)(CC)CCOC(=O)C(O)(c1ccccc1)C1CCCCC1 (centres undefined)",
    "DILI positive/negative": 0
  }
]
